# experimental-target: furin, P09958;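 further: purified furin at 1:10 enzyme:substrate in 50 mM HEPES pH 7.5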
# Sequence (P09958 whole entry): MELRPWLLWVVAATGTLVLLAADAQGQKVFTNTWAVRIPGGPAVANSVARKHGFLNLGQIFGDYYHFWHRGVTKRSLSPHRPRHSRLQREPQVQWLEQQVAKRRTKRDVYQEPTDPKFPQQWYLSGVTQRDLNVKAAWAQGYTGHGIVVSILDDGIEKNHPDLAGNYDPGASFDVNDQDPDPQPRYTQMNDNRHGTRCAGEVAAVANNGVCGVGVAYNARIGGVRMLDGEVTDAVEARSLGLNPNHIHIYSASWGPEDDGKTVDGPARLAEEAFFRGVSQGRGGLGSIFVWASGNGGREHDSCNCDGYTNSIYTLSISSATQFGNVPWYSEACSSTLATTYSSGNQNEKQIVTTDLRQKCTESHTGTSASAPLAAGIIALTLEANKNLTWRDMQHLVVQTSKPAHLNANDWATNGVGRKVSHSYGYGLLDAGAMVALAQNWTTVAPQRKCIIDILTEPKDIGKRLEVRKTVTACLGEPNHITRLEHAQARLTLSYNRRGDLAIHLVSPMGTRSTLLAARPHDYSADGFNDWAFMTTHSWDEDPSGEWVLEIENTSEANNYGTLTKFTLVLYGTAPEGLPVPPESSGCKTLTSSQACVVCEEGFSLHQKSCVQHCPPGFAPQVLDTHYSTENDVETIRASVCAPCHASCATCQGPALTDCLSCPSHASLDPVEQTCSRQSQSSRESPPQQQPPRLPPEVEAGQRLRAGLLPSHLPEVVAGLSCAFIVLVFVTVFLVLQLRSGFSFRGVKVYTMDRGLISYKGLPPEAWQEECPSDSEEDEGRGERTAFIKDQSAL
# assay: furin cleavage Z-score vs untreated control; higher = more cleavage, active = 3.5 or more, inactive = 1 or less, 8 variable residues between constant flanks
# test-conditions: 30 min
This is one part of the list. No count for the full screen is at hand.
Quick rule: furin cleavage Z-score of at least -0.3 means true (1), below that means false (0).

1) CACPTDCFRKAGNASASA [HC451] | false (0)
2) CASVSHARPRAGNASASA [HC1652] | true (1)
3) CAEVKTSTWVAGNASASA [HC2194] | false (0)
4) CAWKDLLEDNAGNASASA [HC1432] | false (0)
5) CAMEECSQWLAGNASASA [HC1748] | false (0)
6) CARVRRAGQGAGNASASA [FS-2106] | true (1)
7) CANGTMRIVGAGNASASA [HC1181] | true (1)
8) CAGTHGLVSFAGNASASA [HC541] | true (1)
9) CAAKVLVVLLAGNASASA [HC345] | true (1)
10) CATTPCGGSWAGNASASA [HC62] | true (1)
11) CARVRRQIHAAGNASASA [FS-2319] | true (1)
12) CADLVVICESAGNASASA [HC1530] | true (1)
13) CARFGRFWKKAGNASASA [FS-2921] | false (0)
14) CASFPCSAHLAGNASASA [HC2487] | false (0)
15) CARVRRLFCRAGNASASA [FS-2245] | true (1)
